Source listed as PubChem BioAssay.

PROTOCOL DESCRIPTION: basal 3T3-L1 adipocyte mitochondrial potential changes, profiling panel, cell-based, JC-1 fluorescence, 3T3-L1 adipocytes, 24 h, 100 nL compound (AID 1168); further: test concentration not given here
TEST PARAMETERS: JC-1 mitochondrial fluorescence, higher = more signal, called active from +8 up or from −8 down
Label rule met when z-score is at or above -0.4; anything below gets rule not met.

Would you please look over these solved cases?
COMPOUND | CLASS ASSIGNMENT
O=C1C2C=CC(C(O)c3cc(C(F)(F)F)cc(C(F)(F)F)c3)N(Nc3ccccc3F)C2C(=O)N1c1ccccc1 (configuration not stated) | rule met
COCCOC(=O)N1C(=O)[C@@]2(c3cc(C#CC4=CCCCC4)ccc31)[C@H](c1ccc(O)cc1)N1[C@H](c3ccccc3)[C@H](c3ccccc3)OC(=O)[C@H]1[C@@H]2C(=O)NC[C@H](O)c1ccccc1 | rule met
NC(=O)N1C(=O)C2C(C1=O)C1C=C(CCCO)C2C(C2CC2)N1Cc1cccc(OC(F)(F)F)c1 (configuration not stated) | rule met

In plain terms: is recorded z-score at least -0.4 for Cc1ccc([C@H]2C(C(=O)O)=C[C@@H](C(C)(C)C)N2S(=O)(=O)c2ccc(C)cc2)cc1 ? rule met

Is reported z-score greater than or equal to -0.4 here: CCCCC(=C=CC[C@H](O)c1ccc(OCCO)cc1)C[C@H](O)c1cc(Cl)cc(Cl)c1O rule met

Evaluate CC(C)[C@H]1NC(=O)[C@@]23C(=O)N[C@@H](Cc4ccccc4)C2[C@H](C)[C@@]2(C)O[C@H]2C3/C=C/CCC/C=C/CNC(=O)[C@H](Cc2ccccc2)NC1=O (some centres not stated) : z-score at minimum -0.4? rule not met

###

PROTOCOL DESCRIPTION: adipocyte viability effects, profiling panel, cell-based, 3T3-L1 adipocytes, calcein-AM fluorescence, 48 h, basal (AID 1163); further: test concentration not given here
TEST PARAMETERS: 3T3-L1 adipocytes viability, higher = more signal
READOUT KIND: z-score
Provide a numeric answer; units are not to be included.

COMPOUND | z-score
COc1ccc([Si](C)(C)[C@@H]2[C@@H](CCn3cc([C@H](O)c4ccccc4)nn3)O[C@]3(C(=O)N(c4ccccc4)c4ccccc43)[C@H]2C)cc1 | 1.98

Return reported z-score; argument: C=CCN1C(=O)[C@]2(O[C@H](CCO)[C@@H]([Si](C)(C)c3ccc(OC)cc3)[C@@H]2C)c2cc(NC(=O)c3ccc(OC)cc3)ccc21 -0.562

Sample Cc1cccc([C@H]2C[C@H]3C(Br)=C[C@@H]2C(=O)[C@]32CO2)c1 — what was its z-score? 0.0171

Name the reported z-score value associated with the compound C=CCNC(=O)[C@@H]1[C@H]2C(=O)O[C@H](c3ccccc3)[C@H](c3ccccc3)N2[C@H](c2ccc(O)cc2)[C@@]12C(=O)N(C(=O)OCCOC)c1ccc(C#CCCO)cc12 1.14

Consider the compound COc1ccc([Si](C)(C)[C@H]2[C@H](CC(=O)N3CCC[C@H]3CO)O[C@@]3(C(=O)N(Cc4ccc(N5CCC5=O)cc4)c4ccccc43)[C@@H]2C)cc1 and give its measured z-score. 0.303

Requested read-out: z-score. Entry: COC(=O)[C@@]1(Cc2ccc(OC)cc2)[C@H]2c3cc(C(=O)N4CCCC4)n(Cc4ccc(OC(F)(F)F)cc4)c3C[C@H]2CN1C(=O)c1ccccc1 -0.25

Which z-score is listed for CCCNC(=O)[C@@]1(Sc2ccc(C)cc2)CC(=O)N(C(C)C)[C@@H]1c1ccc(CO)cc1I ? 0.49

Look at this compound and give its reported z-score. C=CCNC(=O)[C@H]1[C@@H]2C(=O)O[C@@H](c3ccccc3)[C@@H](c3ccccc3)N2[C@@H](c2ccc(OCCO)cc2)[C@]12C(=O)N(C(=O)OCCOC)c1ccc(C#Cc3ccc(OC)cc3)cc12 1.44

Would you mind telling me what z-score value was observed for CN(C)CCCCCCNC(=O)[C@@H]1C[C@@H]2C(=O)N[C@@H](CCCCN)C(=O)N2[C@@H]1c1ccc(O)cc1 ? 0.576

What value of measured z-score is listed for C=CCNC(=O)[C@@H]1[C@H]2C(=O)O[C@H](c3ccccc3)[C@H](c3ccccc3)N2[C@H](c2ccc(OCCO)cc2)[C@@]12C(=O)N(C(=O)OCCOC)c1ccc(C#CCCO)cc12 ? 1.86

What value of z-score has been recorded for this entry: C=C(COC)/C(=C/C[C@@H](OC(C)=O)c1ccc(CO)o1)c1cc(C(=O)OC)ccc1OC -0.461

State the recorded z-score for this entry: C=CCNC(=O)[C@H]1[C@@H]2C(=O)O[C@@H](c3ccccc3)[C@@H](c3ccccc3)N2[C@@H](c2ccc(OCCO)cc2)[C@]12C(=O)Nc1ccc(C#CCNC(N)=O)cc12 1.63

Give its z-score value. Item: C=CC1c2cc(O)c(OC)cc2CCN1Cc1ccc([N+](=O)[O-])o1 (stereo not drawn) -0.187
